- Assayed Target: Estrogen receptor (Homo sapiens) (UniProt P03372)
- Sequence (P03372 whole entry, looked up, the tested form may be a part): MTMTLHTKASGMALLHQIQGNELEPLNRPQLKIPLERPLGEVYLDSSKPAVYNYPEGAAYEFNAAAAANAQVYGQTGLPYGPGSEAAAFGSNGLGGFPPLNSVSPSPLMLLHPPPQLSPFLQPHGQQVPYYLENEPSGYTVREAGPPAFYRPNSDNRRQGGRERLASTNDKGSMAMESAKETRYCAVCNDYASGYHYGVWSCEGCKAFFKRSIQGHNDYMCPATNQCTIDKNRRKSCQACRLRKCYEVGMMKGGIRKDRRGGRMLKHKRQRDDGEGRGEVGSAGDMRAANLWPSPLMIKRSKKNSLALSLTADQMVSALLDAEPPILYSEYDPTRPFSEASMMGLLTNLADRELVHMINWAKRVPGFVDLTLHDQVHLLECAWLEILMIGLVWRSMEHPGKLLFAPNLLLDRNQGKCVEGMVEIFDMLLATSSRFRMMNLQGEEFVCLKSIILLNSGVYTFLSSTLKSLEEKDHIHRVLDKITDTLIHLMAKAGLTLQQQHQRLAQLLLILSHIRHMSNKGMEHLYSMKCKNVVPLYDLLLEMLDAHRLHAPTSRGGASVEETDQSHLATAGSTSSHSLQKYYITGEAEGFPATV
- Assay Text: blockers of SRC-1 peptide recruitment to ERα – biochemical, TR-FRET, ERα LBD, estradiol-bound, primary screen (AID 629);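 also: 0% = receptor plus peptide control and 100% = peptide only without receptor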
- Assay Context: TR-FRET ER-alpha LBD / SRC-1 peptide, at 25.6 µM
About 1,400 (1.6%) of roughly 86,000 compounds were called active. Rule as the data show it: active = inhibition above about 50%; inactive = the rest. Shown is part of a subset that was picked to be rich in actives.
The reply should name one outcome from class 1 (active), class 0 (inactive)

>  <Compound>
CCNCCC(=O)N1c2ccccc2Sc2ccc(NC(=O)OCC)cc21

>  <Group>
class 0

$$$$
>  <Compound>
O=C(NCc1ccccn1)c1cc2ccccc2oc1=O

>  <Group>
class 0

$$$$
>  <Compound>
CCc1nnc(NC(=O)CCC(=O)NCc2ccccc2OC)s1

>  <Group>
class 0

$$$$
>  <Compound>
COCCCn1c(Cc2csc(Nc3cccc(Cl)c3)n2)nnc1SCC(=O)OC1CCCCC1

>  <Group>
class 1

$$$$
>  <Compound>
COC(=O)c1[nH]c2ccccc2c1NC(=O)CN1CCCc2ccccc21

>  <Group>
class 1

$$$$

Ask: Entry CC(Sc1nc2ccccc2c(=O)n1Cc1ccco1)C(=O)c1ccccc1 (configuration not stated) : call = ?
Reply: class 0

Ask: What is the recorded call for this compound in the test? COc1cc2c(cc1NC(=O)CN1CCN(S(=O)(=O)c3ccc(F)cc3)CC1)oc1ccccc12
Reply: class 0

Ask: What did the test return for COc1ccccc1NC(=O)CN1CCN(S(=O)(=O)c2ccc(Br)cc2)CC1 ?
Reply: class 0

Ask: For this compound, state the assay outcome: CCN1C(=O)/C(=C2/Sc3ccc(OC)cc3N2C)SC1=Nc1ccc(C)cc1
Reply: class 0

Ask: // return assay outcome for O=C(CN1CCN(S(=O)(=O)c2ccc(F)cc2)CC1)Nc1ccccc1F
Reply: class 1

Ask: Which outcome was assigned to O=C(Nc1nncs1)c1cccc(S(=O)(=O)N2CCCCC2)c1 in this test?
Reply: class 0

Ask: Give the logged outcome of this assay for the following compound: Cc1ccc(CN(C(=O)c2sc3ccccc3c2Cl)C2CCS(=O)(=O)C2)cc1 (configuration not stated)
Reply: class 0

Ask: Recorded call for Cc1ccc(Cn2c(C)nc3c(c2=O)c2nc4ccccc4nc2n3Cc2ccco2)cc1 ?
Reply: class 0
